Target of assay: T1, human MSLN-R1-his protein (human, UniProt Q13421 296-390)
T1 construct: Made in HEK293E cells, purified on nickel column; also called hMSLN-R1-his; human MSLN-R1 protein; not shown: His tag
T1 chain: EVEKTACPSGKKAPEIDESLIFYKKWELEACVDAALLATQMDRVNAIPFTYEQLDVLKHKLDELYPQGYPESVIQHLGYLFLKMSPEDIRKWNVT
Assay details: ELISA, coated antigen, antibody 0.0002 nM
Recorded metric: OD450
Reply: number alone, nothing else.

Please report the measured OD450 for S009-F7.69.8 chimeric antibody (antibody, human IgG1, kappa, V domains shown, Human-murine chimeric antibody, human IgG1/kappa constant regions) VH: EVHLQQSGPELVKPGASVRIPCKASGYTFTDYNMDWVKQSHGKSLEWIGDINPDNGGTIYTQKFKGKATLTVDKSSSTAYMELRSLTSEDTAVYYCARRLHYYGSSGLDYWGQGTTLTVSS VL: DIQMTQSPASLSAYVGETVTITCRASGNIHNYLAWYQQKQGKSPQLLVYNAKTLADGVPSRFSGSGSGTQYSLKINSLQPEDFGSYYCQHFWSTVWTFGGGTKLEIKR 0.05

Please list OD450 recorded for the binder S009-F7.30.5 chimeric antibody (antibody, human IgG1, kappa, V domains shown, Human-murine chimeric antibody, human IgG1/kappa constant regions) VH: QVQLQQPKTELVKPGASVKLSCKASGYIFTTYWMHWVKQRPGQGLEWIGNVNPSNGGTMYNEKFERRATLTVDKSSSTADMQLSSLTSEDSAVYYCVPHYIGSRPGFAYWGQGTLVTVSG VL: DIVMTQSQKFMSTSVGDRVSVTCKASQNVGTNVAWYQHKPGQSPKALLYSASYRYSGVPDRFTGSGSGTDFTLTITNVQSEDLAEYFCQQYNSYPLTFGGGTKLEIKR 0.05

Fill in reported OD450 for this entry: S009-F7.12.13 chimeric antibody (antibody, human IgG1, kappa, V domains shown, Human-murine chimeric antibody, human IgG1/kappa constant regions) VH: EVQLQQSGPELVKPGASVKIPCKASGYTFTDYNMDWVKQSHGKGLEWIGDINPNTDDTIYNQKFNGKATLTVDKSSSTAYMELRSLTSEDTAVYYCSRRLIGTGYFDVWGTGTTVTVSS VL: QIVLTQSPAIMSASPGEKVTLTCSASSSVISTYLCWYRQKPGSSPELWIYSTSNLASGVPARFSGSGSGTSYSLTISSMEAEDAASYFCHQWSNYPYTFGGGTKLGMKR 0.05

Give a short answer stating reported OD450 for S009-F7.26.15 chimeric antibody (antibody, human IgG1, kappa, V domains shown, Human-murine chimeric antibody, human IgG1/kappa constant regions) VH: DVQLQESGPGLVKPSQTVFLTCTVTGISITTGNYRWSWIRQFPGNKLEWIGYIYYTGFITYNPSLTSRTTITRDTPKNQFFLEMKSLTAEDTATYYCARDDYDYDVFAYWGQGTLVTVSA VL: DIQMTQSPASLSASVGETVTITCRASGNIHNYLAWYHQKQGKSPQFLVYKAKTLADGVPSRFSGSGSGTQYSLKINRLQPEDFGSYYCQHFLSIPLTFGAGTKLELKR . 0.04

Please look at this binder and report its OD450: S009-F7.6.17 chimeric antibody (antibody, human IgG1, kappa, V domains shown, Human-murine chimeric antibody, human IgG1/kappa constant regions) VH: QVQLQQSGAELARPGASVKMSCKASGYTFTTYTMHWVKQRPGQGLEWIGYISPTGDFTKYNQKFKDKATLTTDKSSNTAFMQLSSLTSEDSAVYYCARWNGTVWFAYWGQGTLVTVSA VL: DIVMTQSQKFMSTSVGDRVTVTCKASQALGTNVAWYQQKPGQSPKVLIYSASYRYSGVPYRFAGGGSGTDFTLTITNVQSEDLAEYFCQQYNNYPLTFGAGTKLELKR 0.05

Read off the recorded OD450 for S009-F7.67.12 chimeric antibody (antibody, human IgG1, kappa, V domains shown, Human-murine chimeric antibody, human IgG1/kappa constant regions) VH: QVQLQQPGTELVKPGASVRLSCRASGYSFSSYWMHWVKQRPGQGLEWLGNINPTTGDINYNEKFRNRATLAVDKSSTTAYLQLTSLTSEDSAVYFCVRHDGFLWGQGTTLTVSS VL: DIQMTQSPASLSASVGETVTITCRASENIYSYLAWYQQKQGKSPQLLVYYAKTLAEGVSSRFSGSGSGTQFSLKINSLQPEDFGTYYCQHQFGTPRTFGGGTKLEIRR 0.04

Provide one value: measured OD450 of S009-F7.33.24 chimeric antibody (antibody, human IgG1, kappa, V domains shown, Human-murine chimeric antibody, human IgG1/kappa constant regions) VH: QVQLQQPGTELVKPGASVKLSCKASGYTFTSYWMHWVKQRPGQGLEWIGNVNPSNGGSNYNEKFKNKATLTVDKSSSTADMQLNSLTSEDSAVYYCAPHYIGSRPGFAYWGQGTLVTVSG VL: DIVMTQSQKFMSTSVGDRVSVTCKASQNVGTNIAWYQQKPGQSPKALIYSASYRYSGVPDRFTGSGSGTDFTLTITNVQSEDLAEYFCQQYNSYPLTFGGGTKVEIKR 0.06
